The origin of these recorded values is patent US20240207432A1.

Exercise: state measured koff for each of the binders provided.
# testSystem: T1, cynomolgus TROP2-his protein (cynomolgus monkey, UniProt P09758 27-272 (human entry), limits assumed)
# T1 construct: no cleavage site is stated; also called Cynomolgus monkey TROP2-his protein; monkey TROP2
# T1 chain: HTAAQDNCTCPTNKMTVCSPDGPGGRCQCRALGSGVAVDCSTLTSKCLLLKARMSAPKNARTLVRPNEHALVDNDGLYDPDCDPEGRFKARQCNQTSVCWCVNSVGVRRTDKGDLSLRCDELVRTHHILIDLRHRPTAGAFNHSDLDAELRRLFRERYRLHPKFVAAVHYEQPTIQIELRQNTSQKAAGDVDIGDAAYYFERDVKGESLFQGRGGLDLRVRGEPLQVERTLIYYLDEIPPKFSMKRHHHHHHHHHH
# runDescription: SPR Biacore T200, mAb captured on anti-mouse IgG CM5 chip, TROP2-his analyte
Could you give me the number in s⁻¹? Just the number is fine.

[in] # return recorded koff for input mouse antibody C1B3B12D2 (antibody, V domains shown, Mouse monoclonal IgG purified from hybridoma supernatant) VH: QVQLQQSGPELVRPGTSVKMSCKAAGYTFTKFWIGWVKQRPGHGLEWIGNIYPGGAYINYNENFKGKATLTADTFSSTAYMQLNSLTSADSAIYYCAREGSSGYWGQGTTLTVSS VL: DIVMTQSPSSLTVTAGEKVTLSCKCSQSLLNSGTQENYLTWYQQKPGQPPKMLIYWASIREPGVPDRFTGSGSGTDFTLTINNVQAEDLAVYYCQHDYSYPFTFGSGTKLEIK
[out] 9.44e-07

[in] # return recorded koff for input mouse antibody B1G1F5A3 (antibody, V domains shown, Mouse monoclonal IgG purified from hybridoma supernatant) VH: EVQLQQSGPELVKPGTSVKMSCKASGYSFADYSMNWVRQSHGNSLEWIGYIYPNNGASGFNQKFKGKATLTVDKSSSTAYMELHSLTSEDSAVYYCAREQDNSGYCFDYWGQGTSLTVSS VL: DVVMTQTPLSLAVRLGDQASISCRSSLNLVHSNGNTFLHWYLQRPGQSPKLLIYKVSNRFSGVSDRFSGSGSGTDFTLKISRVEAEDLGVYFCSQTTHVPTFGGGTKLEIK
[out] 8.86e-05

[in] # return recorded koff for input mouse antibody A1H3C5H8E12 (antibody, V domains shown, Mouse monoclonal IgG purified from hybridoma supernatant) VH: QVQLQQSGAELVRPGTSVKMSCKAAGYTFTNYWIDWVKQRPGHGLEWIGNIFPGGFYTNYNEKFKGKATLTADTSSSTAYMQLSSLTSEDSAIYYCARGGVFDYWGQGTTLTVSS VL: DILLTQSPAILSVSPGERVSFSCRASQSIGTSIHWYQQRTNGSPRLLIKYASESISGIPSRFSGSGSGTDFTLSINSVESEDIADYYCQQSNSWPYTFGGGTKLEIK
[out] 0.000758
